test system: HepG2; assay: cytotoxicity call (relative viability < 0.9); settings: 10 µM
Hit rate of the full screen: of about 39,000 compounds, about 3,300 (8.5%) were called active. The sample as a whole holds a higher share of actives than the screen did.
A correct response names exactly one class from active, inactive

| Structure | Assigned Label |
| --- | --- |
| Cc1ccc(S(=O)(=O)Nc2ccc3c(c2)C(=O)N([C@@H](C)CO)C[C@@H](C)[C@@H](CN(C)Cc2ccc(C(F)(F)F)cc2)O3)cc1 | inactive |

QUERY: Each molecule tested received a call. Report the one for Cc1ccc(S(=O)(=O)Nc2ccc3c(c2)C(=O)N([C@@H](C)CO)C[C@H](C)[C@@H](CN(C)Cc2ccc(C(F)(F)F)cc2)O3)cc1 .
RESULT: inactive

QUERY: Record request — test call for C[C@@H]1CN([C@@H](C)CO)S(=O)(=O)c2ccc(-c3cccc(C(=O)N(C)C)c3)cc2O[C@@H]1CN(C)C(=O)Cc1ccccn1
RESULT: inactive

QUERY: Entry CN(C)CC#Cc1ccc([C@@H]2[C@H]3CN(C(=O)CN(C)C)CCCCN3[C@H]2CO)cc1 : call = ?
RESULT: inactive

QUERY: Recorded test outcome, item COc1ccc(NC(=O)N(C)C[C@H]2Oc3c(NC(=O)c4cnccn4)cccc3C(=O)N([C@H](C)CO)C[C@H]2C)cc1
RESULT: inactive

QUERY: Please indicate how the test categorized COc1ccc(NC(=O)Nc2ccc3c(c2)C(=O)N([C@@H](C)CO)C[C@@H](C)[C@@H](CN(C)S(=O)(=O)c2ccc(F)cc2)OCCCC[C@H](C)O3)cc1 .
RESULT: inactive

QUERY: # outcome recorded in this test, key = C[C@@H]1CN([C@@H](C)CO)C(=O)c2cc(NC(=O)Nc3cccc4ccccc34)ccc2O[C@@H](C)CCCCO[C@H]1CN(C)Cc1ccccc1
RESULT: active

QUERY: Please indicate how the test categorized C[C@@H]1CN([C@H](C)CO)C(=O)c2cc(NC(=O)Nc3ccc(C(F)(F)F)cc3)ccc2O[C@H]1CN(C)Cc1ccc(-c2ccccc2)cc1 .
RESULT: active
